# Tested on: MCF7
# measurement description: NCI tumour cell line growth inhibition, 48 h
Active and inactive are the calls of the source. No stated cut-off is given here; in the data, active = GI50 up to about 1.1 µM and inactive = higher.
Choose the fitting class; nothing outside True = active, False = inactive is accepted.

Test call for this molecule, please: CC(=O)O[C@@H]1CC[C@@]2(C)C(CC[C@H]3[C@@H]4CC[C@H]([C@H](C)CCc5nc6cc(C)ccc6[nH]5)[C@@]4(C)CC[C@@H]32)C1 (some centres undefined)
False

Hello, I am checking results. What call was entered for CN1C(=O)c2c(ccc3c2OCO3)C2C(O)Cc3cc4c(cc3C21)OCO4 (centres undefined) ?
False

Kindly provide the recorded test outcome for the following molecule: O=C1CCC2C(O)c3cc4c(cc3C(c3ccc5c(c3)OCO5)N12)OCO4 (centres undefined)
False

State the result this test recorded for CCCC(=O)OC1CC(n2cc(F)c(=O)[nH]c2=O)OC1COP(=O)(OCC(Cl)(Cl)Cl)OCC(Cl)(Cl)Cl (centres undefined) .
True

Any idea what this test logged for COC(OC)[C@@H]1OC[C@H](n2ccc(=O)[nH]c2=O)[C@H]1O ?
False

Outcome? COC(=O)C1=C(CCCCO[Si](C)(C)C(C)(C)C)NC(=O)N2[C@@H](CCOCc3ccccc3)CC[C@H]12
False

What was the test verdict on Cc1ccc(Cc2n[nH]c(=O)n2-c2ccccc2)cc1 ?
False

Which result was noted for this molecule in the test: COC(=O)n1c(=O)n(-c2ccccc2)c(=O)n1C(=O)OC
False

Lab log entry: CC(=O)C(C(=O)c1ccc(C)cc1)[C@H]1OC(C)(C)O[C@H]1[C@H]1COC(C)(C)O1 (some centres undefined) — outcome as called in the assay?
False

# outcome recorded in this test, key = O=[N+]([O-])c1ccc(C2CC(c3ccccc3Cl)=Nc3ccccc3[S+]2[O-])cc1 (centres undefined)
False

Which result was noted for this molecule in the test: O=c1[nH]nc(Cc2ccc(Cl)cc2)n1/N=C/c1ccco1
False

Recorded test call requested for COc1cc(-c2ccc(Nc3ccccc3C(=O)O)c(OC)c2)ccc1Nc1ccccc1C(=O)O
False

What call does the record list for CCN1CN(c2ccccc2)C2(CCN(CC3COc4ccccc4O3)CC2)C1=O (centres undefined) ?
False

Test call for this molecule, please: N#Cc1nc(-c2ccccc2O)oc1N
False

Please let me know the test result on file for C[n+]1cccc2ccc(OC(=O)c3ccccc3)cc21 .
False

Each molecule tested received a call. Report the one for CCOC(=O)C(NC(=O)CC(C)C)(NC(C)C)C(F)(F)F (centres undefined) .
False

// outcome(item) with item = CC1=CC[C@@]2(CO)[C@@H]([C@@H]1C)[C@H]1CC[C@@H]3[C@@]4(C)CC[C@H](O)C(C)(C)[C@@H]4CC[C@@]3(C)[C@]1(C)C[C@@H]2O
False

Hi team, can someone confirm the assay call for CC(=O)Oc1ccc2oc(=O)cc(C)c2c1 ?
False

Answer briefly: the call reported for CCOC(=O)/C(C#N)=N\Nc1ccc(-n2c(C)nc3ccc(Br)cc3c2=O)cc1 in this assay.
False

###

# System: SK-OV-3
# measurement description: NCI tumour cell line growth inhibition, 48 h
Active and inactive are the calls of the source. Rule as the data show it: active = GI50 up to about 1.1 µM and inactive = higher.
reported property: GI50

According to the records, this compound O=c1c(-c2ccccc2)c2oc(c1-c1ccccc1)CSCc1cccc(c1)CSC2 displays GI50 of 25.1 µM (inactive)

Lookup result for O=[N+]([O-])c1nccn1CCCNCCCn1ccnc1[N+](=O)[O-] ; measured GI50: > 100 µM (inactive)

get_value(item= C[N+](C)(C)CC(=O)N/N=C(/C=C/c1ccccc1)CC1OC(=O)c2ccccc21 (centres undefined) , readout=GI50) returns > 100 µM (inactive)

Measured GI50, C=CCN(c1cc(OC)c(NC(C)=O)cc1[N+](=O)[O-])S(C)(=O)=O : > 100 µM (inactive)

###

# Tested on: RXF 393
# measurement description: NCI tumour cell line growth inhibition, 48 h
Active and inactive are the calls of the source. Cut-off read from the data, not from the text of the source: active = GI50 up to about 1.1 µM and inactive = higher. Peptide text beside a SMILES is read from it. * marks the point of attachment. Boc = CC(C)(C)OC(=O)*
reported property: GI50

GI50 for COC(=O)C(Cc1ccccc1)NC(=O)C(CS)NC(=O)OC(C)(C)C (stereo not drawn) (Boc-Cys-Phe-OMe; configuration not given here) is 26 µM (inactive)

Quick note, GI50 for NC(Cc1n[nH]c2ccccc12)C(=O)O (stereo unspecified) landed at > 100 µM (inactive)

Per the record, Nc1nc(Cl)cc(NCC2(CO)CC(CCCc3ccccc3)C2)n1 (stereo unspecified) has GI50 of > 47.1 µM (inactive)

Short answer for CCN(CC)Cc1cc(Nc2c3ccccc3nc3c2[nH]c2ccccc23)ccc1O : GI50 was 1.31 µM (inactive)

// CC(=O)O[C@H]1CCc2c(cc(N)c3c2C(=O)C[C@]2(C)C([C@H](C)CCCC(C)C)CCC32C)C1(C)C (stereo partly specified) : GI50 value = > 100 µM (inactive)

For this compound ( COC(=O)/C(C#N)=C(/NCCN)Nc1ccccc1 ), measured GI50 is > 100 µM (inactive)

###

# System: A549
# measurement description: NCI tumour cell line growth inhibition, 48 h
Active and inactive are the calls of the source. Cut-off read from the data, not from the text of the source: active = GI50 up to about 1.1 µM and inactive = higher.
reported property: GI50

So for Cc1ccc(C2=CC(=O)c3ccccc3C2=O)n1-c1ccccc1 , the logged GI50 turned out to be > 100 µM (inactive)

Entry CC(=O)N1C(Nc2nccs2)CCN1c1ccccc1 (stereo not drawn) ; GI50 = > 10 µM (inactive)

Sure, the documented GI50 for COC(=O)C1=C(C)C(=O)[C@H]2C(C(=O)OC)CCCC[C@@H]12 (stereo partly drawn) is > 100 µM (inactive)

Sample CC(C)=C[C@@H]1C[C@H](C)c2c(O)cc(C)c3c2C1=C(C)C(=O)C3=O [ELISABATIN A] ; GI50 observed: 10.1 µM (inactive)

response.value for CCCNc1[nH]c(C(C)=O)c(N)c1C(=S)Nc1ccccc1 (field: GI50) = 33.3 µM (inactive)

Looking up COc1ccc2c(c1)Cc1cc(/N=[N+](\[O-])c3ccc4c(c3)Cc3cc(OC)ccc3-4)ccc1-2 , I see its GI50 listed as 43.1 µM (inactive)

The molecule O=C(CC1Sc2ccccc2NC1=O)Nc1ccccc1[N+](=O)[O-] (stereo not drawn) showed GI50 equal to > 100 µM (inactive)

Value of measured GI50 for the entry CC(C)(C)OC(=O)NCCCCC(N)C(N)=O (stereo not drawn) : > 100 µM (inactive)

Recorded GI50 (molecule NC1=NCC(c2ccccn2)C1c1ccc(F)cc1 (stereo not drawn) ): > 100 µM (inactive)

GI50 measured on CN1c2ccccc2C(=O)Nc2cnc(Cl)nc21 = > 100 µM (inactive)

// GI50 lookup, molecule = NC(=S)SCCC(=O)O , result: > 100 µM (inactive)

Sure, the documented GI50 for CCOc1ccc(/N=N/c2ccc3oc(=O)c(/C(C)=N/NC(=O)CC(=O)Nc4cccc(OC)c4)cc3c2)cc1 is 28.2 µM (inactive)

The molecule listed as COc1ccc(/C=N/N=C(\N)NO)cc1O shows GI50 equal to 27.6 µM (inactive)

###

# System: HCT-15
reported property: GI50

Short answer for O=c1oc2ccccc2cc1-c1cn2c(n1)sc1ccccc12 : GI50 was > 100 µM

Value of GI50 reported for the molecule O=C1CCC2C(O)c3cc4c(cc3C(c3ccc5c(c3)OCO5)N12)OCO4 (stereo not drawn) is > 100 µM

Lab book: GI50 of COc1ccc2c(c1)c1c3c(ccc4ncn2c43)N(CCO)CCN=1 noted as 0.195 µM

What the record says about Cc1cc2c(c(C(=O)NCCC(=O)N[C@@H](C)C(=O)OCc3ccccc3)c1)Oc1c(cc(C)cc1C(=O)NCCC(=O)N[C@@H](C)C(=O)OCc1ccccc1)S2 : GI50 is > 100 µM

// c1ccc2c(NCCCCCCCCNc3cccc4ccccc34)cccc2c1 : GI50 value = 25.8 µM

For reference, reported GI50 for Cc1[nH]c(=O)[nH]c(=O)c1/C=C/C(=O)NC(CO)CC(C)C (stereo not drawn) stands at > 360 µM

The reported value for CN(C)c1ccc(-c2cc(O)c3cc4c(cc3n2)OCO4)cc1 in terms of GI50 is > 100 µM

// recorded GI50 for C=C1C(=O)OC2C1C(=O)C/C(C)=C/CCC1(C)OC21 (stereo not drawn) : 11.4 µM

###

Please respond with reported GI50 for every item in the list.
# Tested on: HCC 2998
# measurement description: NCI tumour cell line growth inhibition, 48 h
Active and inactive are the calls of the source. Cut-off read from the data, not from the text of the source: active = GI50 up to about 1.1 µM and inactive = higher.

Looking up Clc1cc(Cl)nc(Nc2ccc3c(c2)CCC3)n1 , I found its GI50 recorded as 16.4 µM (inactive)

# GI50 (molecule: C[C@H]1ON2CCC[C@@H]2[C@@H]1C(=O)N1C2CC3CCC2(CS1(=O)=O)C3(C)C (stereo partly drawn) ) is > 100 µM (inactive)

Reported GI50 ( COC(=O)C1=C(C)C(=O)[C@H]2C(C(=O)OC)CCCC[C@@H]12 (stereo partly drawn) ) = > 100 µM (inactive)

// field: GI50; key: CCOc1ccc(/N=N/c2ccc3oc(=O)c(/C(C)=N/NC(=O)CC(=O)Nc4cccc(OC)c4)cc3c2)cc1 ; value = 15.6 µM (inactive)

// GI50 lookup, molecule = N#CC(C#N)=C/C=C/c1ccccc1[N+](=O)[O-] , result: > 10 µM (inactive)

Reported GI50 ( CC(=O)Oc1ccccc1[C@H]1CC(=O)C[C@H](c2ccccc2OC(C)=O)C12C(=O)c1ccccc1C2=O ) = 25.5 µM (inactive)

GET /value?item= Cc1cccc2c1CC(C1OC(=O)c3c(C)cccc31)C2=O (stereo not drawn) &field=GI50 returns > 100 µM (inactive)

Record CC1(C)CSCC(C)(C)C(=N/N)/C1=N\N , field GI50: > 100 µM (inactive)
